Source listed as the kinase profiling compilation of Christmann-Franck et al. (2016).

# Assayed Target: CDK13 (human)
# Method: KINOMEscan competition binding
# Assay Context: compound 10.0 µM
# maps each entry to its kinase still bound, per cent of control
Give the figure together with its unit, number first.

Smiles	Assayed Target	Result
Cc1cc([C@@H](C)Nc2ccccc2C(=O)O)c2nc(N3CCOCC3)cc(=O)n2c1	CDK13 (human)	88%
C[C@@H](Oc1cc(-n2cnc3ccc(CN4CCN(C)CC4)cc32)sc1C(N)=O)c1ccccc1C(F)(F)F	CDK13 (human)	26%

With those in mind, consider the next compound.
Look up kinase still bound, per cent of control: "C=CC(=O)Nc1cccc(Nc2nc(N[C@H]3CC[C@H](N(C)C)CC3)nc3c2ncn3C(C)C)c1" 40%

* * *

# maps each entry to its kinase still bound, per cent of control
# Assayed Target: CSF1R (human)
# Method: KINOMEscan competition binding
# Assay Context: compound 10.0 µM
Number only, in %; omit the unit.

Some molecules with recorded kinase still bound, per cent of control:
Molecule	kinase still bound, per cent of control [%]
O=C(NC1CC1)c1cccc(-c2ccc3c(NC(=O)C4CC4)n[nH]c3c2)c1	70
C=CC(=O)Nc1cc(NC(=O)c2ccc(C)c(NC(=O)c3ccno3)c2)cc(C(F)(F)F)c1	38
COc1cc(C(=O)NC2CCN(C)CC2)ccc1Nc1ncc2c(n1)N(C1CCCC1)C(C)CC(=O)N2C (centres undefined)	100

With those in mind, consider the next molecule.
Look up kinase still bound, per cent of control: "Cc1ccc(C(=O)Nc2cccc(C(F)(F)F)c2)cc1Nc1cncc(C(N)=O)c1" 1.4

* * *

# Assayed Target: PRKACB (human)
# Method: KINOMEscan competition binding
# Assay Context: compound 10.0 µM
Endpoint: kinase still bound, per cent of control (%)
Number only, in %; omit the unit.

Some compounds with recorded kinase still bound, per cent of control:
Compound	Assayed Target	kinase still bound, per cent of control / %
CN(C)C/C=C/C(=O)Nc1cccc(Nc2ncc3c(n2)N(C)c2ccccc2C(=O)N3C)c1	PRKACB (human)	100
N#Cc1c(NC(=O)c2cccc3ccccc23)sc2c1CCCC2	PRKACB (human)	80
Cn1c(=O)n(-c2ccc(C(C)(C)C#N)cc2)c2c3cc(-c4cnc5ccccc5c4)ccc3ncc21	PRKACB (human)	100

Look up kinase still bound, per cent of control: COc1cc(C(=O)NC2CCN(C)CC2)ccc1Nc1ncc2c(n1)N(C1CCCC1)C(C)CC(=O)N2C (stereo unspecified) 100

Entry to check: "Nc1ccc(-c2ccc3ncc4ccc(=O)n(-c5cccc(C(F)(F)F)c5)c4c3c2)cn1" 85

Entry to check: "Cc1ccc(C(=O)Nc2cccc(C(F)(F)F)c2)cc1Nc1cncc(C(N)=O)c1" 100

* * *

# Assayed Target: NEK7 (human)
# Method: KINOMEscan competition binding
# Assay Context: compound 10.0 µM
Endpoint: kinase still bound, per cent of control
Give the figure together with its unit, number first.

Some compounds with recorded kinase still bound, per cent of control:
Smiles	kinase still bound, per cent of control
C[C@@H](Oc1cc(-n2cnc3ccc(CN4CCN(C)CC4)cc32)sc1C(N)=O)c1ccccc1C(F)(F)F	66%
Cc1ccc(NC(=O)c2cccc(C(C)(C)C#N)c2)cc1Nc1ccc2ncn(C)c(=O)c2c1	96%
COc1cc(C(=O)NC2CCN(C)CC2)ccc1Nc1ncc2c(n1)N(C1CCCC1)CCC(=O)N2C(C)C	100%
CCOc1cc2ncc(C#N)c(Nc3ccc(OCc4ccccn4)c(Cl)c3)c2cc1NC(=O)/C=C/CN(C)C	100%
CC[C@@H]1C(=O)N(C)c2cnc(Nc3ccc(C(=O)NC4CCN(C)CC4)cc3OC)nc2N1C1CCCC1	100%

Look up kinase still bound, per cent of control: "COc1cc(N2CCN(C)CC2)ccc1Nc1nc(N)c(C(=O)c2c(Cl)cccc2Cl)s1" 100%
